The following compounds are listed with their measured TD50 values.
experiment: Toxic dose at which 50 percent of the mice failed the rotarod toxicity test; format: organism-based; details: mouse, in vivo
testReadout: TD50

| compound | testReadout | result |
| --- | --- | --- |
| CC12CCC(=O)C(O1)C(C)(C)O2 (configuration not stated) | TD50 | > 300 mg/kg |
| CC1CC(=O)C2OC1OC2(C)C (configuration not stated) | TD50 | > 300 mg/kg |
| CC1(C)OC2C=CC(=O)C1O2 (configuration not stated) | TD50 | < 100 mg/kg |
| CC1(C)OC2CCC(=O)C1O2 (configuration not stated) | TD50 | > 300 mg/kg |
| CCC1(C)CCOC1=O (configuration not stated) | TD50 | > 500 mg/kg |
| CCC1CCCCC1=O (configuration not stated) | TD50 | 245 mg/kg |
| CC1CC(=O)C2OC1(C)OC2(C)C (configuration not stated) | TD50 | > 300 mg/kg |

Every entry's value here was drawn from ChEMBL document CHEMBL1128119.
